Overview of reported IC50 across a group of compounds:
- assay.explanation: Inhibition of Hepatitis C virus genotype 1b NS3/4A protease assessed as substrate cleavage using Ac-C(Eu)DDMEEAbu(COO)ASK(QSY7)-amide as substrate incubated for 30 mins prior to substrate addition by time-resolved fluorescence assay
- Parameters: species or system Hepatitis C virus subtype 1b

smiles.code	units.text	IC50
C=C[C@@H]1C[C@]1(NC(=O)[C@@H]1C[C@@H]2CN1C(=O)[C@H](C1CCCCC1)NC(=O)O[C@@H]1C[C@H]1CCCCCc1c(nc3ccccc3c1OCCCN1CCOCC1)O2)C(=O)NS(=O)(=O)C1(C)CC1	nM	0.01
C=C[C@@H]1C[C@]1(NC(=O)[C@@H]1C[C@@H]2CN1C(=O)[C@H](C1CCCCC1)NC(=O)O[C@@H]1C[C@H]1CCCCCc1c(nc3ccccc3c1OCCCN1CC(F)(F)C1)O2)C(=O)NS(=O)(=O)C1(C)CC1	nM	0.03
C=C[C@@H]1C[C@]1(NC(=O)[C@@H]1C[C@@H]2CN1C(=O)[C@H](C1CCCCC1)NC(=O)O[C@@H]1C[C@H]1CCCCCc1c(nc3ccccc3c1OCCCNC1CCC1)O2)C(=O)NS(=O)(=O)C1(C)CC1	nM	0.02
C=C[C@@H]1C[C@]1(NC(=O)[C@@H]1C[C@@H]2CN1C(=O)[C@H](C(C)(C)C)NC(=O)O[C@@H]1C[C@H]1CCCCCc1c(nc3ccccc3c1O[C@@H]1C[C@H]3CC[C@@H](C1)N3CC)O2)C(=O)NS(=O)(=O)C1(C)CC1	nM	0.02
C=C[C@@H]1C[C@]1(NC(=O)[C@@H]1C[C@@H]2CN1C(=O)[C@H](C1CCCCC1)NC(=O)O[C@@H]1C[C@H]1CCCCCc1c(nc3ccccc3c1OCCCN1CCN(C)CC1)O2)C(=O)NS(=O)(=O)C1(C)CC1	nM	0.01

---

- tgt: NS3 protease (Hepatitis C virus subtype 1b, UniProt Q0ZMF1, R155K)
- assay.explanation: Inhibition of Hepatitis C virus genotype 1b NS3/4A protease R155K mutant assessed as substrate cleavage using Ac-C(Eu)DDMEEAbu(COO)ASK(QSY7)-amide as substrate incubated for 30 mins prior to substrate addition by time-resolved fluorescence assay
pIC50: −log10 of the molar value.
endpoint: pIC50

smiles.code	value
C=C[C@@H]1C[C@]1(NC(=O)[C@@H]1C[C@@H]2CN1C(=O)[C@H](C1CCCCC1)NC(=O)O[C@@H]1C[C@H]1CCCCCc1c(nc3ccccc3c1O[C@H]1C[C@H]3CC[C@@H](C1)N3)O2)C(=O)NS(=O)(=O)C1(C)CC1	10.70
C=C[C@@H]1C[C@]1(NC(=O)[C@@H]1C[C@@H]2CN1C(=O)[C@H](C1CCCCC1)NC(=O)O[C@@H]1C[C@H]1CCCCCc1c(nc3ccccc3c1OCCCN1CCN(C)CC1)O2)C(=O)NS(=O)(=O)C1(C)CC1	10.30
C=C[C@@H]1C[C@]1(NC(=O)[C@@H]1C[C@@H]2CN1C(=O)[C@H](C1CCCCC1)NC(=O)O[C@@H]1C[C@H]1CCCCCc1c(nc3ccccc3c1OC1CCN(CCOC(F)(F)F)CC1)O2)C(=O)NS(=O)(=O)C1(C)CC1	9.82
C=C[C@@H]1C[C@]1(NC(=O)[C@@H]1C[C@@H]2CN1C(=O)[C@H](C(C)(C)C)NC(=O)O[C@@H]1C[C@H]1CCCCCc1c(nc3ccccc3c1O[C@H]1C[C@H]3CC[C@@H](C1)N3CC)O2)C(=O)NS(=O)(=O)C1(C)CC1	11.00
C=C[C@@H]1C[C@]1(NC(=O)[C@@H]1C[C@@H]2CN1C(=O)[C@H](C1CCCCC1)NC(=O)O[C@@H]1C[C@H]1CCCCCc1c(nc3ccccc3c1OCCCNC1CC(F)(F)C1)O2)C(=O)NS(=O)(=O)C1(C)CC1	9.74
C=C[C@@H]1C[C@]1(NC(=O)[C@@H]1C[C@@H]2CN1C(=O)[C@H](C1CCCCC1)NC(=O)O[C@@H]1C[C@H]1CCCCCc1c(nc3ccccc3c1OCCCNC1CCC1)O2)C(=O)NS(=O)(=O)C1(C)CC1	10.00
C=C[C@@H]1C[C@]1(NC(=O)[C@@H]1C[C@@H]2CN1C(=O)[C@H](C1CCCCC1)NC(=O)O[C@@H]1C[C@H]1CCCCCc1c(nc3ccccc3c1OC1CCN(CCS(C)(=O)=O)CC1)O2)C(=O)NS(=O)(=O)C1(C)CC1	9.68
